# system under test: T1, human vascular endothelial growth factor receptor-2 Fc chimera (KDR-Fc) (human, UniProt P35968 20-764)
# T1 construct: range 1-764; also called human VEGFR-2; not shown: human IgG1 Fc
# T1 sequence (P35968 20-764 limits assumed, change not shown, form in doubt): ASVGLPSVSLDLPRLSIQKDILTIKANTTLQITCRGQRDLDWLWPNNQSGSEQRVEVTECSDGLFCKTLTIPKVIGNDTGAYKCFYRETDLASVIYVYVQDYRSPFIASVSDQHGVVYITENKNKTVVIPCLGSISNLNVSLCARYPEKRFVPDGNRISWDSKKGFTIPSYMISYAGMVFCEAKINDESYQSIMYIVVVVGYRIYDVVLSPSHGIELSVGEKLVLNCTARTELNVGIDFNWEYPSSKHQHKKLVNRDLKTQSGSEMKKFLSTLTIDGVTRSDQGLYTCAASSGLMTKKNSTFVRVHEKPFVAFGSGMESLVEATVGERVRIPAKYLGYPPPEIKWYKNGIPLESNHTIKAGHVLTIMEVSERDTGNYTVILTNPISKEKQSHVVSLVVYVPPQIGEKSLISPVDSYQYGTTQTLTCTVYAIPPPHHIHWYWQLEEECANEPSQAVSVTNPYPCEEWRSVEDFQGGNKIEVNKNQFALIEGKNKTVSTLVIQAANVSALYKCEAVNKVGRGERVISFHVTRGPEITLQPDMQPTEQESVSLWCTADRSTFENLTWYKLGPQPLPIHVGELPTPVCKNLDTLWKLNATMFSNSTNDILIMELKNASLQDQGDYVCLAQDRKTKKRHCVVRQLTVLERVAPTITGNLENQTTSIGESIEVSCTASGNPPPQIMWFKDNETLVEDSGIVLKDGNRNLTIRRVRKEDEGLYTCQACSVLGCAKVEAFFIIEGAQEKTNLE
# procedure details: radioactive equilibrium binding, 1 nM KDR-Fc, % of input
readout type: Binding to 1 nM KDR, % (%)

3′E1 PR4 (designed binder) EVVAATPTSLLISWRHPHFPTRYYRITYGETGGNSPVQEFTVPLQPPTATISGLKPGVDYTITVYAVTVAPNGHELFTPISINYRT | 32
3′G3 PR4 (designed binder) EVVAATPTSLLISWRHPHFPTRYYRITYGETGGNSPVQEFTVPLQPPTATISGLKPGVDYTITVYAVTFDQSDHELLTPISINYRT | 31

(P) 2′Del F8 PR4 (designed binder) EVVAATPTSLLISWRHPHFPTRYYRITYGETGGNSPVQEFTVPLQPPTATISGLKPGVDYTITVYAVTAGPGAHELLTPISINYRT
(Q) 2′DelH9 PR4 (designed binder) EVVAATPTSLLISWRHPHFPTRYYRITYGETGGNSPVQEFTVPLQPPTATISGLKPGVDYTITVYAVTVGWSGHELFVPISINYRT
Lookup: # argmax over Binding to 1 nM KDR, % for candidates P and Q Write the label of whichever entry you select.
Found: P

(I) 4′D8 PR4 (designed binder) EVVAATPTSLLISWRHPHFPTRYYRITYGETGGNSPVQEFTVPLQPPTATISGLKPGVDYTITVYAVTLAQNGHELYTPISINYRT
(II) 2′Del C8 PR4 (designed binder) EVVAATPTSLLISWRHPHFPTRYYRITYGETGGNSPVQEFTVPLQPPTATISGLKPGVDYTITVYAVTTAHNGHELLTPISINYRT
Lookup: Of the pair I and II , name the member with the lesser recorded Binding to 1 nM KDR, %. Write the label of whichever entry you select.
Found: II
(II: 15%, I: 26%)

(I) 3′E5 PR4 (designed binder) EVVAATPTSLLISWRHPHFPTRYYRITYGETGGNSPVQEFTVPLQPPTATISGLKPGVDYTITVYAVTVAWDGRELFTPISINYRT
(II) 3′H3 PR4 (designed binder) EVVAATPTSLLISWRHPHFPTRYYRITYGETGGNSPVQEFTVPLQPPTATISGLKPGVDYTITVYAVTLGLNDRELMTPISINYRT
Lookup: Of the pair I and II , name the member with the lesser recorded Binding to 1 nM KDR, %. Write the label of whichever entry you select.
Found: I
